Target: MAP kinase-activated protein kinase 2 (Homo sapiens, UniProt P49137)
Sequence (P49137 whole entry): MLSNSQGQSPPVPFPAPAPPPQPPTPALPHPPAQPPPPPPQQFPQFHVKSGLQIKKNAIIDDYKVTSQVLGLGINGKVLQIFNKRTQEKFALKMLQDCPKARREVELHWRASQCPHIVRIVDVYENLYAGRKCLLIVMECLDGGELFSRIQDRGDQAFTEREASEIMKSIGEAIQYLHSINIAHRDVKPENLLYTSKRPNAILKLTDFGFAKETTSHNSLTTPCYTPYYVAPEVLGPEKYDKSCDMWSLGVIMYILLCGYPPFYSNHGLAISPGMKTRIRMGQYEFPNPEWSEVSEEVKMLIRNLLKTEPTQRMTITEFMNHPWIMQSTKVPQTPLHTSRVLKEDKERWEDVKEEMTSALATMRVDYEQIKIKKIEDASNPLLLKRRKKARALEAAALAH
Experiment: Mass Spectrometry Assay: Compounds I-1 through I-50 of the invention were assayed in a mass spectrometric assay to measure their ability to covalently modify MK2 protein. The procedure for this assay follows. Intact MK2 protein (Invitrogen, Cat. No. PR5320A) was incubated for 60 minutes at room temperature with a 10-fold excess of test compound to protein. Aliquots of the resulting mixture (6 μL …
Parameter: IC50

[
  {
    "Smiles": "C[C@@H]1CNc2c(sc3ccc4nc(Nc5nc(Cl)ncc5C(=O)NC5COC5)ccc4c23)C(=O)N1",
    "Measured": "< 100 nM"
  },
  {
    "Smiles": "C[C@@H]1CNc2c(sc3ccc4nc(Nc5nccc(Cl)n5)ccc4c23)C(=O)N1",
    "Measured": "> 1000 nM"
  },
  {
    "Smiles": "C[C@@H]1CNc2c(sc3ccc4nc(Oc5cc(CNC(C)(C)C)nc(Cl)n5)ccc4c23)C(=O)N1",
    "Measured": "< 100 nM"
  },
  {
    "Smiles": "CN(C)C[C@@H]1CNc2c(sc3ccc4nc(Nc5cc(F)ncn5)ccc4c23)C(=O)N1",
    "Measured": "> 1000 nM"
  },
  {
    "Smiles": "C[C@@H]1CNc2c(sc3ccc4nc(Nc5nc(Cl)ncc5C(=O)NC5CCN(C)CC5)ccc4c23)C(=O)N1",
    "Measured": "< 100 nM"
  }
]

Kindly consider the entry below.
Look up IC50 for this molecule: C[C@@H]1CNc2c(sc3ccc4nc(Nc5nc(Cl)ncc5C(=O)NC5CC5)ccc4c23)C(=O)N1
< 100 nM

Entry source: ChEMBL document CHEMBL5726510
